TARGET DESC: Catenin beta-1/Transcription factor 7-like 2 (Homo sapiens, UniProt P35222+Q9NQB0)
Sequence (P35222 whole entry): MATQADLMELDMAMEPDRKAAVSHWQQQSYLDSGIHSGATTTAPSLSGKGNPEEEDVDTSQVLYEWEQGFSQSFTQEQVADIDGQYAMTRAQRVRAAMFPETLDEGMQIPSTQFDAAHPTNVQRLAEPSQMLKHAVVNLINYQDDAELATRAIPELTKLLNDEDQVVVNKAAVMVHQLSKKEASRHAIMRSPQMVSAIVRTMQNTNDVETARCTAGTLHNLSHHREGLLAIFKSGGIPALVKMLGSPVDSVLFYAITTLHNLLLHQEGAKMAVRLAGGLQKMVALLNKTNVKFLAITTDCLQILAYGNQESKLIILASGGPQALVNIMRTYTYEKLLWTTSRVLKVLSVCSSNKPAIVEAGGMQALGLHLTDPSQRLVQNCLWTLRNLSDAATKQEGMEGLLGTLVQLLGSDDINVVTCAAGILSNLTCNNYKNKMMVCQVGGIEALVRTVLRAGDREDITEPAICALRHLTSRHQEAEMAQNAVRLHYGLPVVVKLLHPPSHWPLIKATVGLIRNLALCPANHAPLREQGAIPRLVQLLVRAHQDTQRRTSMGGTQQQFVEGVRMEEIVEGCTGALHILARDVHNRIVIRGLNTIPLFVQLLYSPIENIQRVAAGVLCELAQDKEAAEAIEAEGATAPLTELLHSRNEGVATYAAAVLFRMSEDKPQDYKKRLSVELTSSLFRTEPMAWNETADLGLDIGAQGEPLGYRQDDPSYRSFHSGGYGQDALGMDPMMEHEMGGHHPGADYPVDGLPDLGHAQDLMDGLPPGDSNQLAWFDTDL
Sequence (Q9NQB0 whole entry): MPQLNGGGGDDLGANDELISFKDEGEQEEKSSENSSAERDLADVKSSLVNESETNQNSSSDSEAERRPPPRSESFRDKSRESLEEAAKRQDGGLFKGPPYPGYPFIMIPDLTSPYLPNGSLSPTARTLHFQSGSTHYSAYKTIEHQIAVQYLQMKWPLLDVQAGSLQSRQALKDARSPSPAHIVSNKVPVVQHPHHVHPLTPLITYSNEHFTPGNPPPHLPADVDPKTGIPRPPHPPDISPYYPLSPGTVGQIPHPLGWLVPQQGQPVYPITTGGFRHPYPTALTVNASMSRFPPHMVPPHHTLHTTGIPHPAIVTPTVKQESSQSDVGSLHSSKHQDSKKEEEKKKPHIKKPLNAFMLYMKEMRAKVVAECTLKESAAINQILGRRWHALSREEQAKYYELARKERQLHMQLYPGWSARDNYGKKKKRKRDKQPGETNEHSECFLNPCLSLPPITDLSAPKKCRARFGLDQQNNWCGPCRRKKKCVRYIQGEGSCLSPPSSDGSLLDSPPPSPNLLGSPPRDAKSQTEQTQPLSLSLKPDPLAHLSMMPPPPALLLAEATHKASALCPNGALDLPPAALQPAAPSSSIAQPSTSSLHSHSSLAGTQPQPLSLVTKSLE
PROTOCOL DESCRIPTION: Inhibition of human TCF4/ flag epitope-tagged beta-catenin (unknown origin) interaction transfected in human HCT116 cells after 24 hrs by beta-galactosidase/luciferase reporter gene assay
REPORTED PROPERTY: pIC50
Friendly reminder that pIC50 comes from taking -log10 of the concentration in mol/L.

## Input Give its pIC50 value. Item: `Cn1nc(-c2ccc(Cl)cc2)nc2c(=O)n(C)c(=O)nc1-2`
## Output 6.52

This collection of values is drawn from BindingDB's records for doi:10.1016/j.bmcl.2013.08.111.
